assay: CLint in NADH-supplemented human liver microsomes; details: human, microsomes, pH 7.4
experimentalReadout: microsomal CLint at 1 µM (µL/min/mg)
The answer is to be given in µL/min/mg; state only the numeric part.

[[record]]
structuresmilesstring = "O=C(O)c1cc(-c2ccc(F)cc2F)ccc1O"
experimentalreadout = "microsomal CLint at 1 µM"
experimentalvalue = 3


Alright, here's another compound for you.
[ask] Consider the compound C=CCN1CC[C@]23c4c5ccc(O)c4O[C@H]2C(=O)CC[C@@]3(O)[C@H]1C5 and give its recorded microsomal CLint at 1 µM.
[reply] 3

###

test: CLint in NADH-supplemented human liver microsomes; settings: human, microsomes, pH 7.4, Midazolam CLint, HLM + NADH, control without gefitinib (Fig. 3d)
experimentalReadout: microsomal CLint at 1 µM

[ask] Consider the compound Cc1ncc2n1-c1ccc(Cl)cc1C(c1ccccc1F)=NC2 and give its recorded microsomal CLint at 1 µM.
[reply] 14.7 µL/min/mg

###

assay: CLint in NADPH-supplemented human liver microsomes; conditions: human, human liver microsomes + NADPH, pH 7.4
experimentalReadout: microsomal CLint at 1 µM (µL/min/mg)
The answer is to be given in µL/min/mg; state only the numeric part.

// below: answered compounds
[[record]]
structuresmilesstring = "CCCc1nn(C)c2c(=O)[nH]c(-c3cc(S(=O)(=O)N4CCN(C)CC4)ccc3OCC)nc12"
experimentalvalue = 134

[[record]]
structuresmilesstring = "COc1cc2ncnc(Nc3ccc(F)c(Cl)c3)c2cc1OCCCN1CCOCC1"
experimentalvalue = 75

[[record]]
structuresmilesstring = "O=C(c1ccc(F)cc1)C1CCN(CCn2c(=O)[nH]c3ccccc3c2=O)CC1"
experimentalvalue = 15.8


Alright, here's another compound for you.
[ask] Consider the compound C[C@@H](c1ccc2nccn2c1)n1nnc2ncc(-c3cnn(C)c3)nc21 and give its recorded microsomal CLint at 1 µM.
[reply] 9.8

###

assay: Incubations in human liver S9 + NADPH (same donor pool as HLM); assay type: in vitro ADME; conditions: human, human liver S9, pH 7.4, Midazolam CLint, S9 + NADPH + 5 uM GEF (Fig. 6b)
experimentalReadout: microsomal CLint at 1 µM (µL/min/mg)
The answer is to be given in µL/min/mg; state only the numeric part.

[ask] Consider the molecule Cc1ncc2n1-c1ccc(Cl)cc1C(c1ccccc1F)=NC2 and give its recorded microsomal CLint at 1 µM.
[reply] 150

###

experiment: Incubations in HLM + NADPH from the same donor pool as S9; format: in vitro ADME, human; details: human, human liver microsomes, pH 7.4, Midazolam CLint, HLM (same donors as S9) + NADPH + 5 uM GEF (Fig. 6b)
experimentalReadout: microsomal CLint at 1 µM (µL/min/mg)
The answer is to be given in µL/min/mg; state only the numeric part.

[ask] Consider the compound Cc1ncc2n1-c1ccc(Cl)cc1C(c1ccccc1F)=NC2 [Midazolam] and give its recorded microsomal CLint at 1 µM.
[reply] 336

###

assay: in vitro; settings: human, hepatocytes, HH_scaled_CLint,u
experimentalReadout: CLint scaled (mL/min/kg)
The answer is to be given in mL/min/kg; state only the numeric part.

[ask] Consider the compound Cc1ncc2n1-c1ccc(Cl)cc1C(c1ccccc1F)=NC2 and give its recorded CLint scaled.
[reply] 90.5

###

assay: CLint in NADH-supplemented human liver microsomes; conditions: human, microsomes, pH 7.4
experimentalReadout: CLint scaled at 1 µM (L/h/kg)
The answer is to be given in L/h/kg; state only the numeric part.

[[record]]
compound = "C=CCN1CC[C@]23c4c5ccc(O)c4O[C@H]2C(=O)CC[C@@]3(O)[C@H]1C5"
experimentalreadout = "CLint scaled at 1 µM"
measurementunit = "L/h/kg"
experimentalvalue = 0.176

[[record]]
compound = "O=C(O)c1cc(-c2ccc(F)cc2F)ccc1O"
experimentalreadout = "CLint scaled at 1 µM"
measurementunit = "L/h/kg"
experimentalvalue = 0.21

[[record]]
compound = "CC(=O)CC(c1ccccc1)c1c(O)c2ccccc2oc1=O (stereo not shown)"
experimentalreadout = "CLint scaled at 1 µM"
measurementunit = "L/h/kg"
experimentalvalue = 0.17


Alright, here's another compound for you.
[ask] Consider the compound CC[C@@H]1[C@H](F)C(=O)N[C@@H]1COc1nccc2cc(C(N)=O)c(OC)cc12 and give its recorded CLint scaled at 1 µM.
[reply] 0.485

###

Quick reference for log10 of CLint scaled at 1 µM among some molecules
assay: CLint in NADPH-supplemented human liver microsomes; conditions: human, human liver microsomes, pH 7.4, Scaled HLM CLint,u average, NADPH-HLM, average, Fig. 1
Please be aware that the numbers have been log10-transformed from CLint scaled at 1 µM in mL/min/kg.

// below: answered molecules
[[record]]
molecule = "CCC1=C[C@@H]2CN(C1)Cc1c([nH]c3ccccc13)[C@@](C(=O)OC)(c1cc3c(cc1OC)N(C)[C@H]1[C@@](O)(C(=O)OC)[C@H](OC(C)=O)[C@]4(CC)C=CCN5CC[C@]31[C@@H]54)C2"
experimentalreadout = "log10 of CLint scaled at 1 µM"
experimentalvalue = 2.78

[[record]]
molecule = "C[C@]12CCC(=O)C=C1CC[C@@H]1[C@@H]2[C@@H](O)C[C@@]2(C)[C@H]1CC[C@]2(O)C(=O)CO [hydrocortisone]"
experimentalreadout = "log10 of CLint scaled at 1 µM"
experimentalvalue = 1.74


[ask] Consider the molecule C[C@@H]1C[C@H]2[C@@H]3CCC4=CC(=O)C=C[C@]4(C)[C@@]3(F)[C@@H](O)C[C@]2(C)[C@@]1(O)C(=O)CO and give its recorded log10 of CLint scaled at 1 µM.
[reply] 1.42

[ask] Consider the molecule C[C@]12C=CC(=O)C=C1CC[C@@H]1[C@@H]2C(=O)C[C@@]2(C)[C@H]1CC[C@]2(O)C(=O)CO and give its recorded log10 of CLint scaled at 1 µM.
[reply] 1.44

[ask] Consider the molecule C[C@]12C=CC(=O)C=C1CC[C@@H]1[C@@H]2[C@@H](O)C[C@@]2(C)[C@H]1CC[C@]2(O)C(=O)CO and give its recorded log10 of CLint scaled at 1 µM.
[reply] 1.60

###

Quick reference for Papp at 2 h, 10 µM among some molecules
assay: Intrinsic permeability in Caco-2 cells with efflux inhibited; settings: human, Caco-2

// below: answered molecules
[[record]]
molecule = "COCCc1ccc(OCC(O)CNC(C)C)cc1 (stereo not drawn) [Metoprolol]"
experimentalreadout = "Papp at 2 h, 10 µM"
experimentalvalue = "19.5 ×10⁻⁶ cm/s"

[[record]]
molecule = "CC(=O)CC(c1ccccc1)c1c(O)c2ccccc2oc1=O (stereo not drawn) [Warfarin]"
experimentalreadout = "Papp at 2 h, 10 µM"
experimentalvalue = "60.7 ×10⁻⁶ cm/s"

[[record]]
molecule = "O=C(O)Cc1ccccc1Nc1c(Cl)cccc1Cl [Diclofenac]"
experimentalreadout = "Papp at 2 h, 10 µM"
experimentalvalue = "118 ×10⁻⁶ cm/s"

[[record]]
molecule = "CCCc1nn(C)c2c(=O)[nH]c(-c3cc(S(=O)(=O)N4CCN(C)CC4)ccc3OCC)nc12 [Sildenafil]"
experimentalreadout = "Papp at 2 h, 10 µM"
experimentalvalue = "66 ×10⁻⁶ cm/s"

[[record]]
molecule = "CC(C)NCC(O)COc1cccc2ccccc12 (stereo not drawn) [Propanolol]"
experimentalreadout = "Papp at 2 h, 10 µM"
experimentalvalue = "45.4 ×10⁻⁶ cm/s"


Alright, here's another molecule for you.
[ask] Consider the molecule O=C(O)c1cc(-c2ccc(F)cc2F)ccc1O [Diflunisal] and give its recorded Papp at 2 h, 10 µM.
[reply] 129 ×10⁻⁶ cm/s

###

experiment: physchem; settings: pH 7.4
experimentalReadout: logD
Quick one: just the number, no unit, thanks!

[ask] Consider the compound CC(=O)CC(c1ccccc1)c1c(O)c2ccccc2oc1=O (stereo not shown) [Warfarin] and give its recorded logD.
[reply] 0.902

###

assay: Free fraction in HLM incubation, equilibrium dialysis; assay type: in vitro ADME, human; conditions: fraction unbound, measured or estimated by in silico models of Fuinc
Ranges used to classify fu_HLM: small value (below 0.6), mid value (0.6 to below 0.9), large value (0.9 or more)

Please review the entries below; each comes with its answer.
[[record]]
compound = "Cc1ncc2n1-c1ccc(Cl)cc1C(c1ccccc1F)=NC2 [Midazolam]"
qualitativelabel = "small value"

[[record]]
compound = "O=C(O)Cc1ccccc1Nc1c(Cl)cccc1Cl [Diclofenac]"
qualitativelabel = "mid value"

[[record]]
compound = "CCCc1nn(C)c2c(=O)[nH]c(-c3cc(S(=O)(=O)N4CCN(C)CC4)ccc3OCC)nc12 [Sildenafil]"
qualitativelabel = "mid value"


[ask] Band for CC[C@@H]1[C@H](F)C(=O)N[C@@H]1COc1nccc2cc(C(N)=O)c(OC)cc12 [Zimlovisertib] ?
[reply] mid value

[ask] Band for O=C1Nc2ccc(Cl)cc2C(c2ccccc2Cl)=NC1O (stereo not drawn) [Lorazepam] ?
[reply] mid value

[ask] Band for CCN(CC)Cc1cc(Nc2ccnc3cc(Cl)ccc23)ccc1O [Amodiaquine] ?
[reply] small value

[ask] Band for COCCc1ccc(OCC(O)CNC(C)C)cc1 (stereo not drawn) [Metoprolol] ?
[reply] large value

[ask] Band for C[C@@H](c1ccc2nccn2c1)n1nnc2ncc(-c3cnn(C)c3)nc21 [Savolitinib] ?
[reply] large value
